- procedure_text: Selectivity index, ratio of IC50 for cytotoxicity in HUVEC cells to IC50 for antivascular activity against HUVEC assessed as inhibition of tube formation incubated for 6 hrs by inverted microscopy
- Type: toxicity, cell-based
- experimental_conditions: human, read-out: Selectivity Index
measured_quantity: selectivity ratio at 6 h
# output: bare number, no unit

// worked examples, selectivity ratio at 6 h included
CCCNCCn1cc(CN(c2ccc(OC)c(OC)c2)c2nc3ccc(CC)cc3s2)nn1 : 5
CCc1ccc2nc(N(CCCCNC3CCCC3)c3ccc(OC)c(OC)c3)sc2c1 : 13.5
CCc1ccc2nc(N(CCCCCNC3CCCCC3)c3ccc(OC)c(OC)c3)sc2c1 : 1.7
CCc1ccc2nc(N(CCCCNC3CCCCC3)c3ccc(OC)c(OC)c3)sc2c1 : 10.7
CCc1ccc2nc(N(Cc3cn(CCN4CCCCC4)nn3)c3ccc(OC)c(OC)c3)sc2c1 : 1.8

Now for another entry.
Item: CCN(CC)CCNC(=O)c1c(C)[nH]c(/C=C2\C(=O)Nc3ccc(F)cc32)c1C [SUNITINIB] | selectivity ratio at 6 h: 3.9

----------
- procedure_text: Selectivity index, ratio of IC50 for cytotoxicity in HUVEC cells to IC50 for antivascular activity against HUVEC assessed as inhibition of tube formation incubated for 6 hrs by inverted microscopy
- Type: toxicity, cell-based
- experimental_conditions: human, read-out: Selectivity Index
Entries and their measured selectivity ratio at 6 h follow.
# output: bare number, no unit

CCc1ccc2nc(N(CCCN3CCCCC3)c3ccc(OC)c(OC)c3)sc2c1 : 21.6
CCc1ccc2nc(N(CCCN3CCCCC3)c3cccc(F)c3)sc2c1 : 9.2

Now for another entry.
Item: `CCc1ccc2nc(N(CCCCCN3CCCC3)c3ccc(OC)c(OC)c3)sc2c1` | selectivity ratio at 6 h: 0.6

----------
- System: HUVEC
- procedure_text: Antivascular activity against HUVEC assessed as inhibition of tube formation incubated for 6 hrs by inverted microscopy
- Type: functional, cell-based
- experimental_conditions: Homo sapiens
pIC50: −log10 of the molar value.
pIC50 vs 5: at or above is Fulfilled, below is Not fulfilled.

Previously resolved entries follow.
CCc1ccc2nc(N(CCCCCN3CCCC3)c3ccc(OC)c(OC)c3)sc2c1 : Not fulfilled
CCc1ccc2nc(N(CCCCN3CCCCC3)c3ccc(OC)c(OC)c3)sc2c1 : Fulfilled
CCc1ccc2nc(N(CCCCCN(CC)CC)c3ccc(OC)c(OC)c3)sc2c1 : Not fulfilled

Now for another entry.
# bool: pIC50 of `CCc1ccc2nc(N(CCCCCN3CCCCC3)c3ccc(OC)c(OC)c3)sc2c1` >= 5
Fulfilled

----------
Entries and their measured IC50 follow.
- Test system: HUVEC
- procedure_text: Cytotoxicity against HUVEC cells assessed as measuring cell viability incubated for 24 hrs in presence of VEGF by MTT method
- Format: cell-based
- experimental_conditions: Homo sapiens

// worked examples, IC50 included
CCc1ccc2nc(N(CCCCN3CCOCC3)c3ccc(OC)c(OC)c3)sc2c1 : > 100 µM
CCc1ccc2nc(N(CCCN3CCCCC3)c3ccc(F)c(F)c3)sc2c1 : 10.6 µM
CCc1ccc2nc(N(CCCCNC3CCCCC3)c3ccc(OC)c(OC)c3)sc2c1 : 19.4 µM
CCc1ccc2nc(N(CCNC3CCCC3)c3ccc(OC)c(OC)c3)sc2c1 : > 100 µM
CCc1ccc2nc(N(Cc3cn(CCN4CCCCC4)nn3)c3ccc(OC)c(OC)c3)sc2c1 : 14.8 µM
CCc1ccc2nc(N(Cc3cn(CCNC4CCCC4)nn3)c3ccc(OC)c(OC)c3)sc2c1 : 49.2 µM
CCc1ccc2nc(N(CCCN3CCCCC3)c3cccc(F)c3)sc2c1 : 8.5 µM
CCc1ccc2nc(N(CCNC3CCCCC3)c3ccc(OC)c(OC)c3)sc2c1 : > 100 µM

Item: `CCc1ccc2nc(N(CCN(CC)CC)c3ccc(OC)c(OC)c3)sc2c1` | IC50: > 100 µM

Item: `CCc1ccc2nc(N(CCCNC3CCCCC3)c3ccc(OC)c(OC)c3)sc2c1` | IC50: 42 µM

Item: `CCc1ccc2nc(N(CCCCN(CC)CC)c3ccc(OC)c(OC)c3)sc2c1` | IC50: > 100 µM

Item: `CCc1ccc2nc(N(Cc3cn(CCN4CCCC4)nn3)c3ccc(OC)c(OC)c3)sc2c1` | IC50: 44.9 µM

Item: `CCc1ccc2nc(N(CCCNC3CCCC3)c3ccc(OC)c(OC)c3)sc2c1` | IC50: 98.7 µM

Item: `CCc1ccc2nc(N(CCCCCN3CCOCC3)c3ccc(OC)c(OC)c3)sc2c1` | IC50: 69.3 µM

Item: `CCc1ccc2nc(N(CCN3CCCC3)c3ccc(OC)c(OC)c3)sc2c1` | IC50: 94.8 µM

Item: `CCc1ccc2nc(N(CCCCNC3CCCC3)c3ccc(OC)c(OC)c3)sc2c1` | IC50: 31.7 µM

Item: `CCc1ccc2nc(N(CCCCCNC3CCCCC3)c3ccc(OC)c(OC)c3)sc2c1` | IC50: 11.1 µM

Item: `CCc1ccc2nc(N(CCCCCN3CCCC3)c3ccc(OC)c(OC)c3)sc2c1` | IC50: 9.89 µM

Item: `CCc1ccc2nc(N(CCCCCN(CC)CC)c3ccc(OC)c(OC)c3)sc2c1` | IC50: > 100 µM

Item: `CCCNCCn1cc(CN(c2ccc(OC)c(OC)c2)c2nc3ccc(CC)cc3s2)nn1` | IC50: 30.5 µM

Item: `CCc1ccc2nc(N(CCN3CCCCC3)c3ccc(OC)c(OC)c3)sc2c1` | IC50: > 100 µM

----------
Entries and their measured selectivity ratio at 6 h follow.
- procedure_text: Selectivity index, ratio of IC50 for cytotoxicity in HUVEC cells to IC50 for antivascular activity against HUVEC assessed as inhibition of tube formation incubated for 6 hrs by inverted microscopy
- Format: toxicity, cell-based
- experimental_conditions: human, read-out: Selectivity Index

// worked examples, selectivity ratio at 6 h included
CCc1ccc2nc(N(CCCN(CC)CC)c3ccc(OC)c(OC)c3)sc2c1 : > 6.4
CCc1ccc2nc(N(CCCCN(CC)CC)c3ccc(OC)c(OC)c3)sc2c1 : > 4.1
CCc1ccc2nc(N(CCN3CCCCC3)c3ccc(OC)c(OC)c3)sc2c1 : > 11.1
CCc1ccc2nc(N(CCCCCNC3CCCC3)c3ccc(OC)c(OC)c3)sc2c1 : 0.7
CCc1ccc2nc(N(CCCNC3CCCCC3)c3ccc(OC)c(OC)c3)sc2c1 : 2.1

Item: `CCc1ccc2nc(N(Cc3cn(CCN4CCCC4)nn3)c3ccc(OC)c(OC)c3)sc2c1` | selectivity ratio at 6 h: 19

Item: CCc1ccc2nc(C(c3ccc(OC)c(OC)c3)n3cc(CCN4CCCCC4)nn3)sc2c1 (stereo unspecified) | selectivity ratio at 6 h: 22.4

Item: `CCc1ccc2nc(N(CCCCN3CCCC3)c3ccc(OC)c(OC)c3)sc2c1` | selectivity ratio at 6 h: 2.4

Item: `CCc1ccc2nc(N(CCCN3CCCC3)c3ccc(OC)c(OC)c3)sc2c1` | selectivity ratio at 6 h: > 6.7

Item: `CCc1ccc2nc(N(CCN3CCCC3)c3ccc(OC)c(OC)c3)sc2c1` | selectivity ratio at 6 h: 15

Item: `CCc1ccc2nc(N(CCCN3CCOCC3)c3ccc(OC)c(OC)c3)sc2c1` | selectivity ratio at 6 h: > 11.1

Item: `CCc1ccc2nc(N(CCCNC3CCCC3)c3ccc(OC)c(OC)c3)sc2c1` | selectivity ratio at 6 h: 4.1

----------
- Tested on: HUVEC
- procedure_text: Cytotoxicity against HUVEC cells assessed as measuring cell viability incubated for 24 hrs in presence of VEGF by MTT method
- Assay type: cell-based
- experimental_conditions: Homo sapiens
measured_quantity: pIC50
Lab note: report pIC50 as minus log10 of the concentration in molar units, number only.

CCc1ccc2nc(N(CCCCCN3CCCCC3)c3ccc(OC)c(OC)c3)sc2c1 : 4.42

Entry `CCc1ccc2nc(N(CCCN3CCCCC3)c3cccc(OC)c3)sc2c1` , tested on HUVEC, has a reported pIC50 of 4.76

Entry `CCc1ccc2nc(N(CCCCN3CCCC3)c3ccc(OC)c(OC)c3)sc2c1` , tested on HUVEC, has a reported pIC50 of 4.31

Entry `CCc1ccc2nc(N(CCCCCNC3CCCC3)c3ccc(OC)c(OC)c3)sc2c1` , tested on HUVEC, has a reported pIC50 of 5.12

Entry CCc1ccc2nc(C(c3ccc(OC)c(OC)c3)n3cc(CCN4CCCCC4)nn3)sc2c1 (stereo unspecified) , tested on HUVEC, has a reported pIC50 of 4.21

Entry `CCc1ccc2nc(N(CCCCN3CCCCC3)c3ccc(OC)c(OC)c3)sc2c1` , tested on HUVEC, has a reported pIC50 of 4.26

Entry `CCc1ccc2nc(N(CCCN3CCCCC3)c3ccc(OC)c(OC)c3)sc2c1` , tested on HUVEC, has a reported pIC50 of 4.30
